For each of the compounds below, state its GFP response vs DMSO.
# Assay summary: modulators of MEP2-GFP levels in yeast, confirmation, S. cerevisiae, flow cytometry GFP, cherry picks (AID 2272);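 note: ratio of well signal to plate DMSO mean so 100% equals DMSO level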
# Experimental parameters: S. cerevisiae MEP2-GFP strain, 3 h, at 10 µM, hits give high values
Give bare numbers, in %.

1) COc1ccccc1C1CCN(Cc2c(C)[nH]c3ccccc23)CC1
99
2) Cc1cc(N2CCCCC2)n2nc(C)c(-c3ccccc3)c2n1
97.8
3) CCc1cccc2sc(N3CCN(C(=O)c4ccc([N+](=O)[O-])o4)CC3)nc12
172
4) C[C@@H](C(=O)Nc1nc2ccc(F)cc2s1)N1C(=O)C2CC=CCC2C1=O (some centres undefined)
102
5) Nc1ccc(-c2c3ccc(=O)cc-3oc3cc(O)ccc23)cc1C(=O)O
248
6) CCCn1c(=O)c(C(=O)Nc2ccccc2C(=O)OCC)c(O)c2ccccc21
108
7) COc1ccc(NC(=O)Nc2ccon2)c(OC)c1
99
8) CCc1ccc(C(=O)COC(=O)c2n[nH]c3ccccc23)cc1
101
9) CCOC(=O)c1csc(Nc2nc3ccc(F)cc3s2)n1
99
10) Fc1ccccc1-c1nc(NCCCN2CCOCC2)c2ccccc2n1
96.2

Hey, quick one: what's GFP response vs DMSO for each of these?
1. O=S(=O)(c1ccc(Cl)cc1)c1ccccn1
2. CCOc1ccc(C(=O)/C=C/c2ccc(SC)cc2)cc1
3. CCOCCCNC(=O)/C(C#N)=C/c1ccc([N+](=O)[O-])o1
4. CCOC(=O)C1C(=O)C=C(c2ccc(C)cc2)CC1c1ccco1 (centres undefined)
5. CCOC(=O)CS(=O)(=O)c1nc(-c2ccccc2)cc(C(F)(F)F)n1
6. CN1CCSc2ccc(C(=O)Nc3cccc(F)c3)cc21
7. CC1=NOC(=O)/C1=C\c1ccc(-c2cc(Cl)ccc2Cl)o1
8. CCC(C)(C)NC(=O)C(c1cccs1)N(CC1CCCO1)C(=O)Cn1nnc2ccccc21 (centres undefined)

1. 101
2. 101
3. 285
4. 102
5. 130
6. 99.5
7. 118
8. 101
